# protocol.summary: growth suppression of PTEN-deleted HCT116, pilot screen, cell-based, HCT116 clonal line, CellTiter-Glo (AID 824);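 also: 0% = 20 µM Hyamine control and 100% = vehicle cell control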
# experimental.setup: 60 h, at 10 µM
Results filed as inconclusive are left out. The source made the active and inactive calls.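 The calls were made as follows: active = viability at or below 27.92% in each of two runs, the all-compound median minus 4 SD; inconclusive = no clear call, values can overlap the other calls; inactive = the rest.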
Please answer using one outcome listed in y for active, n for inactive

### Prompt I would be grateful if you could indicate the recorded call for "COc1ccc(C)c2sc(=NC(=O)C(C)C)n(C)c12" .
### Response n

### Prompt I would be grateful if you could indicate the recorded call for "Cc1cnn(C(=O)c2ccccc2Br)c1" .
### Response n

### Prompt I would be grateful if you could indicate the recorded call for "O=C(c1ccc(CN2CCOCC2)cc1)N1CCC(Cc2ccccc2)CC1" .
### Response n

New cases:
### Prompt I would be grateful if you could indicate the recorded call for Cc1ccc(N2C(=O)c3oc4ccccc4c(=O)c3C2c2cccnc2)nc1 (stereo not drawn) .
### Response n

### Prompt I would be grateful if you could indicate the recorded call for "O=C(c1ccsc1)N1CCN(C(=O)c2cccs2)CC1" .
### Response n

### Prompt I would be grateful if you could indicate the recorded call for CC1=C(C(=O)Nc2ccccc2C)C(c2ccccc2)NC(=O)N1 (stereo not drawn) .
### Response n

### Prompt I would be grateful if you could indicate the recorded call for CCOC(=O)C1CCCN(C(=O)C2CCCN(S(=O)(=O)c3ccc4c(c3)oc(=O)n4C)C2)C1 (stereo not drawn) .
### Response n

### Prompt I would be grateful if you could indicate the recorded call for "CC(=O)c1cccc(NC(=O)c2cnn3ccccc23)c1" .
### Response n

----------
# protocol.summary: OD615 S. cerevisiae growth inhibition, permissive medium, pilot counter-assay, permissive growth control for S. cerevisiae lifespan shortening project (AID 705)
# experimental.setup: OD615, 24 h, at 10 µM
Active and inactive are the calls of the source.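 How the source made its calls: active means growth inhibition above 25% in both replicates, a cutoff set 3 SD above the mean; inconclusive means above 25% in only one replicate; inactive means the rest.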
Please answer using one outcome listed in True = active, False = inactive

Past entries and their recorded results:
### Prompt I would be grateful if you could indicate the recorded call for "Cc1cc(C)nc(/N=c2/ssnc2Cl)c1" .
### Response True

### Prompt I would be grateful if you could indicate the recorded call for "Cn1c(=O)oc2cc(S(=O)(=O)N3CCCc4ccccc43)ccc21" .
### Response False

### Prompt I would be grateful if you could indicate the recorded call for COC(=O)C(Cc1ccccc1)NC(=O)CSc1nc(C)cc(=O)[nH]1 (configuration not stated) .
### Response False

### Prompt I would be grateful if you could indicate the recorded call for "CCCCc1ccc(NC(=O)OC)cc1" .
### Response False

### Prompt I would be grateful if you could indicate the recorded call for "C(=N\c1nccs1)/c1c[nH]c2ccccc12" .
### Response False

### Prompt I would be grateful if you could indicate the recorded call for Cc1cc(C(=O)NCC(c2ccco2)N(C)C)no1 (configuration not stated) .
### Response False

### Prompt I would be grateful if you could indicate the recorded call for "COC(=O)c1ccc(C)c(NS(=O)(=O)c2ccc(OC)cc2)c1" .
### Response False

### Prompt I would be grateful if you could indicate the recorded call for "O=C(Nc1nnc(-c2ccccc2)o1)Nc1ccccc1Cl" .
### Response False

### Prompt I would be grateful if you could indicate the recorded call for "CN1CCCN(Cc2ccccc2C(F)(F)F)CC1" .
### Response False

### Prompt I would be grateful if you could indicate the recorded call for "COc1ccc(-c2noc(-c3cccc(OC)c3OC)n2)cc1OC" .
### Response False

New cases:
### Prompt I would be grateful if you could indicate the recorded call for COc1ccc(-c2cc3ccccc3n2CC(O)Cn2nc(C)cc2C)cc1 (configuration not stated) .
### Response False

### Prompt I would be grateful if you could indicate the recorded call for CCC1(C)Cc2nc3sc(C(=O)O)c(N)c3cc2CO1 (configuration not stated) .
### Response False

----------
# protocol.summary: growth suppression of PTEN-deleted HCT116, pilot screen, cell-based, HCT116 clonal line, CellTiter-Glo (AID 824);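 also: 0% = 20 µM Hyamine control and 100% = vehicle cell control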
# experimental.setup: 60 h, at 10 µM, stronger effect = lower value
Records with an inconclusive call do not appear.
recorded.metric: viability (%)
The response must be a number in % with no trailing unit.

Known results for compounds:
### Prompt For the compound "N#Cc1ccccc1N=C1CCCN1Cc1ccccc1" , report viability.
### Response 95.2

### Prompt For the compound "COc1cc(C(=O)n2nc(C)cc2C)cc(OC)c1OC" , report viability.
### Response 98.9

### Prompt For the compound "CC(C)C(=O)Nc1ccc2c(c1)C(=O)N(CCC(=O)O)C2=O" , report viability.
### Response 100

### Prompt For the compound CCOc1ccc(C(=O)Nc2c3c(nn2-c2ccc(C)cc2)CS(=O)C3)cc1OCC (stereo unspecified) , report viability.
### Response 104

### Prompt For the compound "Cc1cccn2cc(CCNC(=O)c3ccc(Br)o3)nc12" , report viability.
### Response 94.3

Next compound, viability to be filled in.
### Prompt For the compound "O=c1c2c3c(sc2nc2n1CCCCC2)CCCC3" , report viability.
### Response 85.6

----------
# protocol.summary: reversal of MRP1-mediated doxorubicin resistance, pilot screen, H69AR cells, doxorubicin co-treatment (AID 601)
# experimental.setup: H69AR cells + 2 uM doxorubicin, CellTiter-Glo, 72 h; measured here: viability with 2 uM doxorubicin; at 10 µM; stronger effect = lower value
Threshold 80%. viability below it: y. viability at it or above: n.

### Prompt # TODO verify viability < 80% strictly for this molecule: "N#Cc1c(/N=C/c2ccco2)sc2c1CCC2"
### Response n

### Prompt # TODO verify viability < 80% strictly for this molecule: CC(C)C(NC(=O)c1ccco1)C(=O)NCC(c1ccco1)N1CCCCC1 (configuration not stated)
### Response y

### Prompt # TODO verify viability < 80% strictly for this molecule: CCC(C)(C)NC(=O)C(OC(=O)c1ccco1)c1ccccc1OC (configuration not stated)
### Response n

### Prompt # TODO verify viability < 80% strictly for this molecule: "Cc1ncc(CO)c2c1OC(C)(C)OC2"
### Response n

### Prompt # TODO verify viability < 80% strictly for this molecule: "Cc1csc(NC(=O)c2cc3c(s2)-c2ccccc2OC3)n1"
### Response y

New cases:
### Prompt # TODO verify viability < 80% strictly for this molecule: "CCOC(=O)NC1(NCc2ccccc2)Oc2ccccc2O1"
### Response y

### Prompt # TODO verify viability < 80% strictly for this molecule: COc1ccc(S(=O)(=O)C(C#N)c2nc3ccccc3nc2N2CCCC(C)C2)cc1 (configuration not stated)
### Response n

### Prompt # TODO verify viability < 80% strictly for this molecule: "Cc1ccc(C(=O)NCc2ccc3c(c2)OCO3)cc1S(=O)(=O)N1CCCCC1"
### Response n

### Prompt # TODO verify viability < 80% strictly for this molecule: "CCN(CC)CCN1C(=O)Cn2c(C)c(C)c3cccc1c32"
### Response n

### Prompt # TODO verify viability < 80% strictly for this molecule: "CCCCSc1nc2c(cnn2-c2ccc(Cl)cc2)c(=O)[nH]1"
### Response y

### Prompt # TODO verify viability < 80% strictly for this molecule: "CN(C)c1cccc2c(S(=O)(=O)Nc3ccccn3)cccc12"
### Response n

----------
Measured viability of individual entries
# protocol.summary: reversal of MRP1-mediated doxorubicin resistance, pilot screen, H69AR cells, doxorubicin co-treatment (AID 601)
# experimental.setup: H69AR cells + 2 uM doxorubicin, CellTiter-Glo, 72 h; measured here: viability with 2 uM doxorubicin; at 10 µM; stronger effect = lower value
The response must be a number in % with no trailing unit.

Known results for compounds:
### Prompt For the compound "CCOC(=O)CSc1nnc(-c2ccc(S(=O)(=O)N3CCOCC3)cc2)n1-c1ccccc1" , report viability.
### Response 87.7

### Prompt For the compound CCC(NC(C)C)C(O)c1ccc(O)c2[nH]c(=O)ccc12 (stereo not given) , report viability.
### Response 82.7

New cases:
### Prompt For the compound "CCOC(=O)N1CCN(C(=O)CSc2cc(C)nc3c(-c4ccccc4OC)c(C)nn23)CC1" , report viability.
### Response 24.8

### Prompt For the compound "COCCNC(=O)CN1CCN(C(c2ccccc2)c2ccccc2)CC1" , report viability.
### Response 92.2

### Prompt For the compound "COc1ccccc1N1CCN(C(=O)c2c(-c3c(Cl)cccc3Cl)noc2C)CC1" , report viability.
### Response 90.3

----------
# protocol.summary: growth suppression of PTEN-deleted HCT116, pilot screen, cell-based, HCT116 clonal line, CellTiter-Glo (AID 824);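 also: 0% = 20 µM Hyamine control and 100% = vehicle cell control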
# experimental.setup: 60 h, at 10 µM, stronger effect = lower value
Results filed as inconclusive are left out.
Threshold 90%. viability below it: 1.0. viability at it or above: 0.0.

### Prompt # TODO verify viability < 90% strictly for this molecule: CS(=O)(=O)N1Cc2ccccc2CC1C(=O)Nc1ccccc1C(N)=O (stereo not drawn)
### Response 0.0

### Prompt # TODO verify viability < 90% strictly for this molecule: "COc1ccc(-c2cn3c(C)c(C(=O)N4CCc5ccccc5C4)sc3n2)cc1"
### Response 1.0

### Prompt # TODO verify viability < 90% strictly for this molecule: "O=C(CN1C(=O)c2ccccc2S1(=O)=O)N1CCN(c2ccccc2F)CC1"
### Response 0.0

New cases:
### Prompt # TODO verify viability < 90% strictly for this molecule: "CCOC(=O)N1CCC(NC(=O)CN2C(=O)CSc3ncccc32)CC1"
### Response 0.0

### Prompt # TODO verify viability < 90% strictly for this molecule: "COc1ccc(C)cc1NC(=O)CSc1nnc(-c2ccc(C)cc2)o1"
### Response 1.0

### Prompt # TODO verify viability < 90% strictly for this molecule: "COC(=O)c1cc(CSc2nc3ccc(C)cc3[nH]2)oc1C"
### Response 1.0

### Prompt # TODO verify viability < 90% strictly for this molecule: "CCC(=O)c1ccc(N2CCN(C(=O)COc3ccc(F)cc3)CC2)c(F)c1"
### Response 1.0

### Prompt # TODO verify viability < 90% strictly for this molecule: CCN=C(NCC)SC1CC(=O)N(c2cccc(OC)c2)C1=O (stereo not drawn)
### Response 0.0

### Prompt # TODO verify viability < 90% strictly for this molecule: C#CCN1C(=O)C(O)(CC(=O)c2ccc3c(c2)OCCO3)c2ccccc21 (stereo not drawn)
### Response 1.0

### Prompt # TODO verify viability < 90% strictly for this molecule: "COc1ccccc1-n1c(SCC(=O)Nc2nnc(C)s2)nc2c(c1=O)SCC2"
### Response 1.0

### Prompt # TODO verify viability < 90% strictly for this molecule: "CCC(=O)Nc1nnc(-c2ccco2)o1"
### Response 0.0

### Prompt # TODO verify viability < 90% strictly for this molecule: ON1C(c2ccc(Cl)cc2Cl)N(O)[C@H]2CCCC[C@H]21 (stereo partly drawn)
### Response 0.0

### Prompt # TODO verify viability < 90% strictly for this molecule: "C=CCSc1nc2c(cnn2-c2ccc(C)c(C)c2)c(=O)[nH]1"
### Response 0.0

### Prompt # TODO verify viability < 90% strictly for this molecule: "Cc1ccc2nc(NC(=O)c3cccs3)sc2c1"
### Response 1.0
